Test system: RAW-Dual (murine macrophage reporter line)
experiment.summary: NF-kB reporter (SEAP) activity fold change vs agonist alone; higher = enhanced NF-kB activity
measurement.conditions: modulator concentration 10 µM; agonist: MPLA […]
Measured NF-kB reporter accompanies every entry in the list below.
Respond with the number and no other words.

# example entries with known answers
CSc1nc2cc(Oc3cccc(Cl)c3Cl)c(Cl)cc2[nH]1 ... 0.63
CN(C)C(CNC(=O)NCc1ccc(F)cc1)c1ccc2c(c1)CCO2 (stereo not drawn) ... 1.04
Cc1cc(OCC(O)Cn2cnc3ccccc32)ccc1Cl (stereo not drawn) ... 1.14
CCCCC(=O)N(Cc1ccc(-c2ccccc2-c2nn[nH]n2)cc1)C(C(=O)O)C(C)C (stereo not drawn) ... 1.02
O=C(Oc1ccc2ccccc2c1)c1ccccc1 ... 1.04

Q: Give reported NF-kB reporter for "COc1ncc(-c2ccc3nccc(-c4ccnnc4)c3c2)cc1NS(=O)(=O)c1ccc(F)cc1F" (RAW-Dual (murine macrophage reporter line))
Result: 3.01

Q: Send back RAW-Dual (murine macrophage reporter line) NF-kB reporter of "COCCN1CCC(NC(=O)c2cnc3ccccc3n2)CC1" only.
Result: 1.35

Q: Print RAW-Dual (murine macrophage reporter line) NF-kB reporter for COc1ccccc1N1CCN(CC(O)COc2cccc3ccccc23)CC1 (stereo not drawn) .
Result: 0.711

Q: Specify the recorded NF-kB reporter for "c1ccc(CCn2c3ccccc3c3nnc(SCCN4CCCCC4)nc32)cc1" , system: RAW-Dual (murine macrophage reporter line).
Result: 1.02

Q: Report measured NF-kB reporter on RAW-Dual (murine macrophage reporter line); entry: "CN(C)CCN(Cc1ccccc1)Cc1cccc(Cl)c1"
Result: 1.05

Q: Enter measured NF-kB reporter, system RAW-Dual (murine macrophage reporter line), for the compound shown: "COc1c2occc2cc2ccc(=O)oc12"
Result: 0.907

Q: Provide measured NF-kB reporter on RAW-Dual (murine macrophage reporter line) for C#CCCCCCCCCCCCC(O)CC(O)COC(C)=O (stereo not drawn) please.
Result: 1.13

Q: Tell me NF-kB reporter of "C#CCN[C@@H]1CCc2ccccc21.CS(=O)(=O)O" when tested on RAW-Dual (murine macrophage reporter line).
Result: 1.03

Q: Would you please give the reported NF-kB reporter of "COc1ccc([C@@H]2Sc3ccccc3N(CCN(C)C)C(=O)[C@@H]2OC(C)=O)cc1.Cl" with RAW-Dual (murine macrophage reporter line)?
Result: 1.21

Q: Param request: NF-kB reporter | system RAW-Dual (murine macrophage reporter line) | item CCCCCCOc1ccc(N2C(=O)CC(SC(=Nc3ccccc3)Nc3ccccc3)C2=O)cc1 (stereo not drawn)
Result: 0.856

----------
Test system: RAW-Dual (murine macrophage reporter line)
experiment.summary: IRF reporter (Lucia luciferase) activity fold change vs agonist alone; higher = enhanced IRF activity
measurement.conditions: modulator concentration 10 µM; agonist: 3'3'-cGAMP 10 ug/mL
observed.property: IRF reporter
Write the value as a bare number.

Reference set, count: 2
COc1ccc(N2CC(NC(=O)Nc3cccc(Cl)c3C)CC2=O)cc1OC (stereo not given) ... 0.977
CC1(C)NC(=O)N(c2ccc([N+](=O)[O-])c(C(F)(F)F)c2)C1=O ... 0.868

Q: Look up IRF reporter of "C[C@H]1O[C@H]1P(=O)(O)O.NC(CO)(CO)CO" and report it.
Result: 0.937

Q: Respond only with IRF reporter recorded for "Cc1nc(Nc2ncc(C(=O)Nc3c(C)cccc3Cl)s2)cc(N2CCN(CCO)CC2)n1.O"
Result: 0.0905

Q: Return IRF reporter for the following compound: CCN(Cc1ccncc1)C(=O)C(CO)c1ccccc1 (stereo not given)
Result: 0.972
